// reported pIC50 for each item listed
- test_target: ErbB2 WT (Homo sapiens (Human))
- Sequence (P04626 23-1255): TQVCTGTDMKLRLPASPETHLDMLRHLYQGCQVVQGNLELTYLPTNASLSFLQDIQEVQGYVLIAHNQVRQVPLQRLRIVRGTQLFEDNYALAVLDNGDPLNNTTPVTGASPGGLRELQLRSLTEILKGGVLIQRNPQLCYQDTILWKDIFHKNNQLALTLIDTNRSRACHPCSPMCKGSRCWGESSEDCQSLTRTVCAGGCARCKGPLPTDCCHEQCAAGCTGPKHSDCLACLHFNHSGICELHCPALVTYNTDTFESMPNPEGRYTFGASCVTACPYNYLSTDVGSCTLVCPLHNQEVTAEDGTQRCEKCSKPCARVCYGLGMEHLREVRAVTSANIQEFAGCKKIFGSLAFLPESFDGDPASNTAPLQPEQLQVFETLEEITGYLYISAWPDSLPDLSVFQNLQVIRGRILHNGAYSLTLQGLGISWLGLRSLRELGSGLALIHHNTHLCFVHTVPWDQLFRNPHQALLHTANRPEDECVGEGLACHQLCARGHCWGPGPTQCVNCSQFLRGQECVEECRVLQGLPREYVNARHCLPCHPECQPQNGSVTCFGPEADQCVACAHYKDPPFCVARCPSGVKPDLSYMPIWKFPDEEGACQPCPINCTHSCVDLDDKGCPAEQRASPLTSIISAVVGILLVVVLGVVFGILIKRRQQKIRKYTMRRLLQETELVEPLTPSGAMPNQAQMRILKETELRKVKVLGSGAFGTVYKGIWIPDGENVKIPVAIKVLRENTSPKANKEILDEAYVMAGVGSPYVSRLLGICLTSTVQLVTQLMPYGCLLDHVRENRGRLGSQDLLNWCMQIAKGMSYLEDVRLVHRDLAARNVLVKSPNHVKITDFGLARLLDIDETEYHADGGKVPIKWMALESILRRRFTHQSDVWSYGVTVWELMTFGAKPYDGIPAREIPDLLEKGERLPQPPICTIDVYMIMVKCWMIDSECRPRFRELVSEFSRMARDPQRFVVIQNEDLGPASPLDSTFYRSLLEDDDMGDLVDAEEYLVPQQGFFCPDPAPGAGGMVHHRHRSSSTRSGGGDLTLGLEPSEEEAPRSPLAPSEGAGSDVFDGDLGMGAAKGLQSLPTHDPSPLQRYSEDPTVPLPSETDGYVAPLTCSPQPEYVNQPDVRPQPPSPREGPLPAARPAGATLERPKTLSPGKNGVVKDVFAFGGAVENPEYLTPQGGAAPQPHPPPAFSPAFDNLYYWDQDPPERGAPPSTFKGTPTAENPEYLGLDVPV
- test: ErbB Enzyme Assay (HTRF KinEASE-TK), Assay 2
- Format: biochemical
- experimental_conditions: ErbB2 WT enzyme assay
Scale note: pIC50 = -log10(concentration in M).

The measured pIC50 that `C=CC(=O)N1CC2CC(C1)N2c1ccc2ncnc(Nc3cc(C)c(Oc4ccn5ncnc5c4)cc3F)c2n1` showed for ErbB2 WT (Homo sapiens (Human)) is 6.69

The measured pIC50 that `C=CC(=O)N1C[C@H]2CC[C@@H]1C[C@@H]2c1ccc2ncnc(Nc3ccc(Oc4cnc5c(c4)ncn5C)c(C)c3F)c2n1` showed for ErbB2 WT (Homo sapiens (Human)) is 6.80

Continuing:
The measured pIC50 that `C=CC(=O)N1CC(c2ccc3ncnc(Nc4ccc(Oc5ccn6ncnc6c5)c(C)c4F)c3n2)C1` showed for ErbB2 WT (Homo sapiens (Human)) is 7.30

The measured pIC50 that CCC(=O)N1CC([C@H](C)c2ccc3ncnc(Nc4ccc(Oc5ccn6ncnc6c5)c(C)c4F)c3n2)C1 (racemic) showed for ErbB2 WT (Homo sapiens (Human)) is 7.02

The measured pIC50 that C=CC(=O)N1C[C@H](c2ccc3ncnc(Nc4ccc(Oc5ccn6ncnc6c5)c(C)c4F)c3n2)C[C@H]1COC (mixture of isomers) showed for ErbB2 WT (Homo sapiens (Human)) is 7.23

The measured pIC50 that `C=CC(=O)N1CCC(c2ccc3ncnc(Nc4ccc(Oc5cnc6c(c5)ncn6C)c(C)c4)c3n2)CC1` showed for ErbB2 WT (Homo sapiens (Human)) is 7.12

The measured pIC50 that `C=CC(=O)N1CCN(c2ccc3ncnc(Nc4ccc(Oc5cnc6c(c5)ncn6C)c(C)c4)c3n2)CC1(C)C` showed for ErbB2 WT (Homo sapiens (Human)) is 7.55

The measured pIC50 that `C=CC(=O)N1C[C@@H]2C[C@H]1CN(c1ccc3ncnc(Nc4ccc(Oc5ccn6ncnc6c5)c(C)c4F)c3n1)C2` showed for ErbB2 WT (Homo sapiens (Human)) is 6.31

====

- test_target: EGFR wild type (EGFR WT) (Homo sapiens (Human), UniProt P00533)
- Sequence (P00533 25-1210): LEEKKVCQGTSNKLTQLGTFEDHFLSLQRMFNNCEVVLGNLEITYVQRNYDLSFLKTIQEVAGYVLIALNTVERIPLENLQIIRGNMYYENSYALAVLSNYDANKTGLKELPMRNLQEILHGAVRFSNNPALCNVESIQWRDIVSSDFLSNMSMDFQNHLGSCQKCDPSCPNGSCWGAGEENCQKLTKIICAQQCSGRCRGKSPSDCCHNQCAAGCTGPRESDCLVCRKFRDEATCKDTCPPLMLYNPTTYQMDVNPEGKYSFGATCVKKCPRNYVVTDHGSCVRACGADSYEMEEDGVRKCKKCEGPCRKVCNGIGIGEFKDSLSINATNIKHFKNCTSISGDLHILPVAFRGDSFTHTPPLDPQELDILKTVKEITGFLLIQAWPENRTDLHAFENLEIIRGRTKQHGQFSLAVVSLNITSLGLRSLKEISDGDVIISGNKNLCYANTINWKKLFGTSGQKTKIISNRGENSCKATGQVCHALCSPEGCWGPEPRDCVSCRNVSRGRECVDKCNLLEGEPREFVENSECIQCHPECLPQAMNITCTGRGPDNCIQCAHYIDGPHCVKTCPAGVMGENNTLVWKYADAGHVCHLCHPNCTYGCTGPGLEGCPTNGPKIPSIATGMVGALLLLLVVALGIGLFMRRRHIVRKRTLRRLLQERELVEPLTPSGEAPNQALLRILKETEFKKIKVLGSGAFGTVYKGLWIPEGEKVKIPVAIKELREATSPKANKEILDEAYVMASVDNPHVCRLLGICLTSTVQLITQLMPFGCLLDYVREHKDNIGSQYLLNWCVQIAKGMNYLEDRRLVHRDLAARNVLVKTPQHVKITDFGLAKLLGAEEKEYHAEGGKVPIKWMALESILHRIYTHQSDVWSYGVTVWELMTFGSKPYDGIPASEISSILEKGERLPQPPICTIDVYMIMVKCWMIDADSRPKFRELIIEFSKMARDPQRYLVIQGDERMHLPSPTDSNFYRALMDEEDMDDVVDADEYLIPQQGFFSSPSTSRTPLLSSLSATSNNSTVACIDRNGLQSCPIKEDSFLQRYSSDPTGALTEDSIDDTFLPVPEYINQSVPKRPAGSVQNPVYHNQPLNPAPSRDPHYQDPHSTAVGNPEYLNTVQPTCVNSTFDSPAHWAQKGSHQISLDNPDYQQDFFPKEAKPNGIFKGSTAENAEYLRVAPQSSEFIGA
- test: Cellular Phosphorylation Assay, Assay 5 (EGF-stimulated EGFR phosphorylation, NIH 3T3 cells)
- Format: cell-based
- experimental_conditions: EGF-stimulated EGFR WT phosphorylation
pIC50: −log10 of the molar value.
Label scheme for pIC50: lower than 6 is NOT MET, 6 and above is MET.

Hello, I need to know if C=CC(=O)N1[C@@H]2CC[C@H]1[C@H](c1ccc3ncnc(Nc4ccc(Oc5ccn6ncnc6c5)c(C)c4F)c3n1)C2 (single isomer, unassigned) [Example 228] has measured pIC50 not below 6. Thanks!
NOT MET

Hello, I need to know if `C=CC(=O)N1CC[C@@H]2C[C@H]1CN2c1ccc2ncnc(Nc3ccc(Oc4ccc5c(c4)ncn5C)c(C)c3F)c2n1` has measured pIC50 not below 6. Thanks!
MET

====

- test_target: ErbB2 with Exon 20 YVMA insertion (HER2-YVMA) (Homo sapiens (Human), UniProt P04626, INS775YVMA)
- Sequence (P04626 other isoform, or with tags, fused parts or gaps ins YVMA behind 775): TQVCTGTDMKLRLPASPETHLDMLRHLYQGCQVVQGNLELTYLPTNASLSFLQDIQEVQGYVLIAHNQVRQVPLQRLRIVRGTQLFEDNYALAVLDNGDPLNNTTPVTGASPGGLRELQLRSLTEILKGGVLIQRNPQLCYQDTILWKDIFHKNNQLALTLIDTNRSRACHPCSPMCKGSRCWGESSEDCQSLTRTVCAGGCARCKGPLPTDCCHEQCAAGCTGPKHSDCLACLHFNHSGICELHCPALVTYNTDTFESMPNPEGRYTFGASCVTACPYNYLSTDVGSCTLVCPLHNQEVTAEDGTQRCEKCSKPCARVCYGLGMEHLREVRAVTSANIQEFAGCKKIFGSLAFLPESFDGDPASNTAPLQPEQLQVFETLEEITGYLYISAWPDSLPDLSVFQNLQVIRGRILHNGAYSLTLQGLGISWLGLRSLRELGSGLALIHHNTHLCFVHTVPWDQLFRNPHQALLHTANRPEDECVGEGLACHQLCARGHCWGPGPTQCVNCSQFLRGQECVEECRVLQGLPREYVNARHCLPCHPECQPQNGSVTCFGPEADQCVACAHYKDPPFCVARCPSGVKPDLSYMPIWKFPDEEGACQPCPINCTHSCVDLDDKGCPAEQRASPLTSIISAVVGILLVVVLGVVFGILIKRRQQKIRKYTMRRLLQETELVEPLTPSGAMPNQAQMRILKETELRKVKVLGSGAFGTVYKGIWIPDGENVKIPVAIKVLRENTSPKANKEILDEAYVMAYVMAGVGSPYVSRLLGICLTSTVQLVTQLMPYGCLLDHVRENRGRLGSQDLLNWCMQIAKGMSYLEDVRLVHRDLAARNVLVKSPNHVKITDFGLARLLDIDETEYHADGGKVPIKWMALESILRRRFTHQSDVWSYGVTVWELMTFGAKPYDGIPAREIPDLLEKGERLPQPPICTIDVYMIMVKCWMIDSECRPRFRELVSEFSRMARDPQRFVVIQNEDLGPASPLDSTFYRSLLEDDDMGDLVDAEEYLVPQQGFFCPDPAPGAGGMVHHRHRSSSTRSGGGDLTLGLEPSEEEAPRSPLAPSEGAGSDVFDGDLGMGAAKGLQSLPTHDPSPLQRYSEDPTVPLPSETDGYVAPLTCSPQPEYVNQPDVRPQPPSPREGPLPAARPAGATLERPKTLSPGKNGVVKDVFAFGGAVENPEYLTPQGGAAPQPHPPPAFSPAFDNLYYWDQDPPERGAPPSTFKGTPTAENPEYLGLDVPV
- test: Cellular Phosphorylation Assay, Assay 4 (constitutive ErbB2 phosphorylation, NIH 3T3 cells)
- Assay type: cell-based
- experimental_conditions: cellular ErbB2 YVMA phosphorylation
property_measured: IC50 (nM)
Your answer is read as nM, so omit the unit and give the number.

IC50 reading for `C=CC(=O)N1[C@@H](C)CN(c2ccc3ncnc(Nc4cc(C)c(Oc5ccc6c(c5)ncn6C)cc4F)c3n2)C[C@@H]1C` : 115

IC50 reading for `C=CC(=O)N1C[C@@H]2C[C@H](c3ccc4ncnc(Nc5ccc(Oc6ccc7c(c6)ncn7C)c(C)c5F)c4n3)C[C@H]1C2` : 31.1

IC50 reading for C=CC(=O)N1C[C@H](c2ccc3ncnc(Nc4ccc(Oc5ccn6ncnc6c5)c(C)c4F)c3n2)CC1(C)C (racemic) : 36.1

IC50 reading for `C=CC(=O)N1C[C@@H]2C[C@H]1CC[C@@H]2c1ccc2ncnc(Nc3ccc(Oc4ccn5ncnc5c4)c(C)c3F)c2n1` : 67.3

IC50 reading for `C=CC(=O)N1CCN(c2ccc3ncnc(Nc4cc(C)c(Oc5cnc6c(c5)ncn6C)cc4F)c3n2)C[C@@H]1C1CC1` : 28.5

IC50 reading for CC#CC(=O)N1C[C@@H]2CC[C@H]1CN2c1ccc2ncnc(Nc3ccc(Oc4ccn5ncnc5c4)c(C)c3F)c2n1 [Example 333] : 31

Reference source: patent US12447153B2
